Value source: paper PMC9501633

Below, each entry is listed alongside its reported IC50.
# Test system: Hs578T cells
# PROTOCOL TEXT: AlamarBlue cell viability assay
# Type: cell-based
# EXPERIMENTAL CONTEXT: Homo sapiens, Hs-578T
# Procedure: The potent 3-fluoro-β-lactam compound 33 synthesised was also evaluated in the triple-negative MDA-MB-231 cell line which lacks expression of the estrogen and progesterone receptors (ER/PR) and the HER2 receptor. […]. Compound 32 was also evaluated in the triple-negative breast cancer cell line Hs578T and its isogenic subclone Hs578T(i)8 (Figure 4C). […] The cell number was monitored using a haemocytometer. […]

{"COMPOUND": "COc1ccc(/C=C\\c2cc(OC)c(OC)c(OC)c2)cc1O [CA-4, combretastatin A-4, reference compound]", "IC50 / nM": 8}
{"COMPOUND": "COc1ccc(C2C(F)C(=O)N2c2cc(OC)c(OC)c(OC)c2)cc1O (centres unmarked) [Compound 32]", "IC50 / nM": 33}

---

Below, each entry is listed alongside its reported cells remaining.
# Test system: SW-480 cells
# PROTOCOL TEXT: AlamarBlue cell viability assay
# Assay type: cell-based
# EXPERIMENTAL CONTEXT: SW-480, 10 μM, 72 h
EXPERIMENTAL ENDPOINT: cells remaining

{"MOLECULE": "COc1ccc(C2N(c3cc(OC)c(OC)c(OC)c3)C(=O)C2(F)F)cc1O (stereo not shown)", "EXPERIMENTAL ENDPOINT": "cells remaining", "MEASUREMENT": "56%"}
{"MOLECULE": "COc1ccc(C2C(F)C(=O)N2c2cc(OC)c(OC)c(OC)c2)cc1 (stereo not shown)", "EXPERIMENTAL ENDPOINT": "cells remaining", "MEASUREMENT": "58%"}
{"MOLECULE": "COc1ccc(C2C(F)C(=O)N2c2cc(OC)c(OC)c(OC)c2)cc1F (stereo not shown)", "EXPERIMENTAL ENDPOINT": "cells remaining", "MEASUREMENT": "62%"}
{"MOLECULE": "CCSc1ccc(C2C(F)C(=O)N2c2cc(OC)c(OC)c(OC)c2)cc1 (stereo not shown)", "EXPERIMENTAL ENDPOINT": "cells remaining", "MEASUREMENT": "60%"}

---

# PROTOCOL TEXT: AlamarBlue cell viability assay, non-tumourigenic cells
# Assay type: cell-based, human
# EXPERIMENTAL CONTEXT: human, HEK-293T cells (non-tumourigenic), 1 μM
EXPERIMENTAL ENDPOINT: viability at 72 h, 1 µM (%)

{"MOLECULE": "COc1ccc(C2C(F)C(=O)N2c2cc(OC)c(OC)c(OC)c2)cc1F (stereo not shown)", "MEASUREMENT": 88}

---

Below, each entry is listed alongside its reported remaining at 4 h, 0.8 mg/mL.
# PROTOCOL TEXT: Stability under degradation conditions (HPLC)
# Format: physicochemical
# EXPERIMENTAL CONTEXT: 0.1 M HCl added to stock solution, acidic (0.1 M HCl)

{"MOLECULE": "COc1ccc(C2C(F)C(=O)N2c2cc(OC)c(OC)c(OC)c2)cc1F (centres unmarked) [Compound 33]", "UNIT": "%", "remaining at 4 h, 0.8 mg/mL": 60}
{"MOLECULE": "CCSc1ccc(C2N(c3cc(OC)c(OC)c(OC)c3)C(=O)C2(F)F)cc1 (centres unmarked) [Compound 39]", "UNIT": "%", "remaining at 4 h, 0.8 mg/mL": 54}
